Measured values drawn from patent US20120270844A1 for this set.

study-system: PAK2 (Homo sapiens, UniProt Q13177)
Sequence (Q13177 whole entry): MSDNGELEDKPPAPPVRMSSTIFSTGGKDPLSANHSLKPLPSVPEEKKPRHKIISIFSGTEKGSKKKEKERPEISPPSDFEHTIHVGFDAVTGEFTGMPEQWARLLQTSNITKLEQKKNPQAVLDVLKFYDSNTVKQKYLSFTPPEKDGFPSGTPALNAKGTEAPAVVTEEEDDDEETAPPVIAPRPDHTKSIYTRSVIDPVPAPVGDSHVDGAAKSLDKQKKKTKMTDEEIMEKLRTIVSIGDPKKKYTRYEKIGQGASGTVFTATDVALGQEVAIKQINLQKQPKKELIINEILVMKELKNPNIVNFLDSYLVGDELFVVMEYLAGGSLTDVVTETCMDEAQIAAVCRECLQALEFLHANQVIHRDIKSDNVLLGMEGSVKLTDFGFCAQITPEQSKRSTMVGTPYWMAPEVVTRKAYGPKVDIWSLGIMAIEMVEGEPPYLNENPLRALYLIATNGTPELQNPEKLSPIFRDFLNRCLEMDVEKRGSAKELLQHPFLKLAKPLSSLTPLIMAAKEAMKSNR
assay-method-text: Z'Lyte fluorescence-based (FRET) PAK kinase assay, PAK2
Assay type: biochemical
test-context: Table 1 of Example 100; 75 μM ATP
endpoint: IC50

Worked examples follow.
* CN1CCN(c2ccc(Nc3ncc4ccc(=O)n(C5CCOc6ccccc65)c4n3)cc2)CC1 (stereo not shown) | 1 to 10 µM
* CN1CCN(c2ccc(Nc3ncc4ccc(=O)n(C5CCc6ccccc6C5)c4n3)cc2)CC1 (stereo not shown) | < 1 µM
* CN1CCN(c2ccc(Nc3ncc4ccc(=O)n(C5Cc6ccccc6C5)c4n3)cc2)CC1 | 1 to 10 µM

IC50 in this record for CN(C)CC(c1ccccc1)n1c(=O)ccc2cnc(Nc3ccc(N4CCOCC4)cc3)nc21 (stereo not shown) : > 10 µM

IC50 in this record for COc1ccc(Cn2c(=O)ccc3cnc(Nc4ccc(N5CCN(C)CC5)cc4)nc32)cc1 : > 10 µM

IC50 in this record for CN1CCN(c2ccc(Nc3ncc4ccc(=O)n(C5CCc6ccccc65)c4n3)cc2)CC1 (stereo not shown) : 1 to 10 µM

IC50 in this record for CN1CCN(c2ccc(Nc3ncc4ccc(=O)n([C@@H]5CCCc6ccccc65)c4n3)cc2)CC1 : 1 to 10 µM

IC50 in this record for CN(C)CC(c1ccccc1)n1c(=O)ccc2cnc(Nc3ccc(N4CCN(C)CC4)cc3)nc21 (stereo not shown) : > 10 µM

IC50 in this record for CN(C)CCNc1ccc(Nc2ncc3ccc(=O)n(C4CCCC4)c3n2)cc1 : 1 to 10 µM

IC50 in this record for Cc1ccccc1Cn1c(=O)ccc2cnc(Nc3ccc(N4CCN(C)CC4)cc3)nc21 : < 1 µM

###

study-system: PAK4 (Homo sapiens)
Sequence (O96013 whole entry): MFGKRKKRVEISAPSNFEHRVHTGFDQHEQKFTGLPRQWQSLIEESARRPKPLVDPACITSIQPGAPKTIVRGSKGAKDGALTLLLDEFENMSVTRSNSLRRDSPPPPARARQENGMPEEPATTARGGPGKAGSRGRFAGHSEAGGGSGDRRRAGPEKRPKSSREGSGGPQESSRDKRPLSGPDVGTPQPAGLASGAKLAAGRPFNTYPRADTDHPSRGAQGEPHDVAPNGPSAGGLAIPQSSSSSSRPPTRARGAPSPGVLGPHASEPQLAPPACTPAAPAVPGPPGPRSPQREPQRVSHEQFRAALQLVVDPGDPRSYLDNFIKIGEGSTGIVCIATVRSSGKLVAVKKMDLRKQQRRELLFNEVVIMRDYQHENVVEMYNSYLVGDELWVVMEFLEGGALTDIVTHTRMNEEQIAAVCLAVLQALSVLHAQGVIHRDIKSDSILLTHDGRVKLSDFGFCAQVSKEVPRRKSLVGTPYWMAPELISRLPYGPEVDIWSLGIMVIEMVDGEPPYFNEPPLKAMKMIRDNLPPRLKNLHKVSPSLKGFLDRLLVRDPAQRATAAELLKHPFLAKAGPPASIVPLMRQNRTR
assay-method-text: Z'Lyte fluorescence-based (FRET) PAK kinase assay, PAK4
Type: biochemical
test-context: Table 1 of Example 100; 5 μM ATP
Procedure: A fluorescence-based assay format is used to determine IC50 values of test compounds in vitro. Purified PAK kinase is incubated with ATP, and a test compound at various concentrations and a substrate peptide containing two fluorophores. […] Plates are analyzed in a standard fluorescence plate reader (Tecan or equivalent) using an excitation wavelength of 400 nn and emission wavelengths of 445 nm and 520 nm. Inhibition of kinase reaction is determined by emission ratio=emission@445 nm/emission@520 nm […]
Each entry below lists one item and its recorded IC50 value.

* CN1CCN(c2ccc(Nc3ncc4ccc(=O)n(Cc5ccc(Cl)cc5)c4n3)cc2)CC1 | > 10 µM
* CN1CCN(c2ccc(Nc3ncc4ccc(=O)n(Cc5ccccc5C#N)c4n3)cc2)CC1 | 1 to 10 µM
* COc1ccc(F)cc1Cn1c(=O)ccc2cnc(Nc3ccc(N4CCN(C)CC4)cc3)nc21 | 1 to 10 µM

For CN1CCN(c2ccc(Nc3ncc4ccc(=O)n(C5CCOc6ccccc65)c4n3)cc2)CC1 (stereo not shown) on PAK4 (Homo sapiens), measured IC50 was 1 to 10 µM

###

study-system: PAK1 (Homo sapiens, UniProt Q13153)
Sequence (Q13153 whole entry): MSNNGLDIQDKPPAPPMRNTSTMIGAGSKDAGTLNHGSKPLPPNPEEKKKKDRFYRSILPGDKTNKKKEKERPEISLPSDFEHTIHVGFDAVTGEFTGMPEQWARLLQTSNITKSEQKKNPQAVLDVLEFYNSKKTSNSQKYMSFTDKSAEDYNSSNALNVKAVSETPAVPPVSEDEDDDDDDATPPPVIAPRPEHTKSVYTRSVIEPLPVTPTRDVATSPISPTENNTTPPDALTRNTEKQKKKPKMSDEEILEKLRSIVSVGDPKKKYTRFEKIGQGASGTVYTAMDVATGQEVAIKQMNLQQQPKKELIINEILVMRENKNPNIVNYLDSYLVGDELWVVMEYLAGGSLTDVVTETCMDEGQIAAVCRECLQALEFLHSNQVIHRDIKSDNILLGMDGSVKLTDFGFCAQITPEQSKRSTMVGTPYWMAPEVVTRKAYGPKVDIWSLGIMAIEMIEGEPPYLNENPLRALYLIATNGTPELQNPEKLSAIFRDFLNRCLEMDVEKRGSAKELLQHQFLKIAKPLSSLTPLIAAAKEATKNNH
assay-method-text: Z'Lyte fluorescence-based (FRET) PAK kinase assay, PAK1
Type: biochemical
test-context: Table 1 of Example 100; 50 μM ATP
Each entry below lists one item and its recorded IC50 value.

Worked examples follow.
- CN1CCN(c2ccc(Nc3ncc4ccc(=O)n(CCc5ccccc5)c4n3)cc2)CC1 [Compound 49]: < 1000 nM
- CN1CCN(c2ccc(Nc3ncc4ccc(=O)n(Cc5ccccc5OC(F)F)c4n3)cc2)CC1 [Compound 44]: < 1000 nM
- CN1CCN(c2ccc(Nc3ncc4ccc(=O)n(Cc5ccccc5SC(F)(F)F)c4n3)cc2)CC1 [Compound 43]: < 1000 nM
- CN1CCN(c2ccc(Nc3ncc4ccc(=O)n(Cc5ccccc5C(F)(F)F)c4n3)cc2)CC1 [Compound 42]: < 1000 nM
- CN(C)CCNc1ccc(Nc2ncc3ccc(=O)n(C4CCCC4)c3n2)cc1 [Compound 4]: 1000 to 10000 nM
- CN1CCN(c2ccc(Nc3ncc4ccc(=O)n(C5CCCC5)c4n3)cc2)CC1 [Compound 1]: < 1000 nM
- CN1CCN(c2ccc(Nc3ncc4ccc(=O)n(Cc5ccccc5-n5cccn5)c4n3)cc2)CC1 [Compound 53]: < 1000 nM
- O=c1ccc2cnc(Nc3ccc(NC4CCNCC4)cc3)nc2n1Cc1ccccc1C(F)(F)F [Compound 8]: < 1000 nM

IC50 in this record for CN1CCN(c2ccc(Nc3ncc4ccc(=O)n(C5CCOc6ccccc65)c4n3)cc2)CC1 (centres unmarked) [Compound 15] : 1000 to 10000 nM

IC50 in this record for Cc1cc(F)ccc1Cn1c(=O)ccc2cnc(Nc3ccc(N4CCN(C)CC4)cc3)nc21 [Compound 45] : 1000 to 10000 nM

IC50 in this record for CN1CCCC(Nc2ccc(Nc3ncc4ccc(=O)n(Cc5ccccc5C(F)(F)F)c4n3)cc2)C1 (centres unmarked) [compound 61] : < 1000 nM
